Taken from patent US20160251436A1.

# study-system: T1, soluble extracellular domain of human PD-1 (human, UniProt Q15116 25-170)
# T1 construct: extracellular domain
# T1 sequence (Q15116 25-170): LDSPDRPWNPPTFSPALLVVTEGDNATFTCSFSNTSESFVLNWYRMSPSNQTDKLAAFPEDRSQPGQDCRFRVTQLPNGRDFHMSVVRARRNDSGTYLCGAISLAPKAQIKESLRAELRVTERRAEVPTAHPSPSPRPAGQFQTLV
# test-name: BLI (ForteBio Octet Red), antibody on the biosensor, soluble PD-1 ECD as analyte
reported-endpoint: kon (M⁻¹ s⁻¹)
Hi! Could you send only the number? It should be in M⁻¹ s⁻¹, unit omitted.

Find the recorded kon belonging to 100244_C8VH3_100245_C8VK5 (antibody, V domains shown, Mouse variable regions; cloned into pFUSE-CHIg-mG1 (murine IgG1 Fc), expressed in HEK293) VH: EVQLQESGPELVRPGASVKMSCKASGYTFTSYWMHWVKQRPGQGLEWIGMIDPSNSETSLNQKFKDKATLNVDKSTNTAYMQLSSLTSEDSAVYYCARSRGNYAYEMDYWGQGTSVTVSS VL: DIVITQTTAIMSASPGEKVTLTCSASSSVSSNYLYWYQQRPGSSPKLWIYSTSNLASGVPARFSGSGSGTSYSLTISSMEAEDAASYFCHQWSSYPPTFGSGTKLEIK and report it.
213000
